FYI, the data here is from ChEMBL document CHEMBL3988442.

Target: Tyrosyl-tRNA synthetase, putative (Trypanosoma cruzi (strain CL Brener)) (UniProt Q4DSP6)
Sequence (Q4DSP6 as listed by the source): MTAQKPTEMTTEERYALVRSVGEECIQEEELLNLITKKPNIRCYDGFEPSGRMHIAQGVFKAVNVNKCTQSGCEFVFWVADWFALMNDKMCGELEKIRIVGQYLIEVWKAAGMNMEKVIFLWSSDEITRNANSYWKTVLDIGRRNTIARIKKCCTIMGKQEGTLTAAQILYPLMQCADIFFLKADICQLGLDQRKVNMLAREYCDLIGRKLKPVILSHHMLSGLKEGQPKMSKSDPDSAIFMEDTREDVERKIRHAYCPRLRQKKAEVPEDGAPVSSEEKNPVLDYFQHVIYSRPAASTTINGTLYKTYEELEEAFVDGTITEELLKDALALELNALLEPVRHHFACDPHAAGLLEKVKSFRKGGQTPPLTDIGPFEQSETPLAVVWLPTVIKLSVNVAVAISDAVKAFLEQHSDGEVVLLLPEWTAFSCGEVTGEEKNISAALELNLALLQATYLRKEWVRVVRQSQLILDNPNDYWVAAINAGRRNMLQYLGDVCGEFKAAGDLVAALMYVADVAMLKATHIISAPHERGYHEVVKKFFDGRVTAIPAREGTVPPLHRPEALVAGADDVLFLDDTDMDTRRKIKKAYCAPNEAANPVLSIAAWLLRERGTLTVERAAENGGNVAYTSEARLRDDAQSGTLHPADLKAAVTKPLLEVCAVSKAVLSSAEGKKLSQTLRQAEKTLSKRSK
Experiment: Trypanosoma cruzi tyrosyl tRNA synthetase (TcYRS) SOP
Format: functional
Parameters: scale not given: direction of the effect not stated beside the values
Conditions: 30 µM
compounds and their reported Percent Effect

{"columns": ["compound", "Percent Effect / %"],
 "data": [
  ["Cc1cc(=O)[nH]c(SCC(=O)N(C)CC2Cc3ccccc3CN2C)n1 (stereo not drawn)", 8.64],
  ["COCCn1cc(C(=O)N2CCCC2c2cc(C)no2)ccc1=O (stereo not drawn)", 12.2],
  ["CC(C(=O)N1CCCN(c2ncccc2C#N)CC1)n1cccn1 (stereo not drawn)", 11.1]
]}

* * *

Test system: Trypanosoma cruzi
Experiment: Trypanosoma cruzi phosphomannomutase and mannose-1-phosphate guanylyltransferase assay
Assay type: functional
Design: scale not given: direction of the effect not stated beside the values
Details: 10 µM
measurement type: Percent Effect (%)

{"columns": ["molecule", "measured target", "measured"],
 "data": [
  ["Cc1cccc(N2CCN(CCCNC(=O)c3nccn3C)CC2)c1", "Trypanosoma cruzi", 4.49],
  ["Cc1nc(CN(C)C2CCN(CC(=O)N3CCOCC3)C2)no1 (stereo not given)", "Trypanosoma cruzi", -3.62],
  ["COc1ccc(NC(=O)Cn2nc(C)ccc2=O)cc1OC", "Trypanosoma cruzi", -0.786],
  ["CCn1cc(CN2CCCn3nc(CNC(=O)C4CCC4)cc3C2)cn1", "Trypanosoma cruzi", 4.42],
  ["CC(C)c1cc(C(=O)NCCN2CCCS2(=O)=O)n[nH]1", "Trypanosoma cruzi", 0.469],
  ["CN(C)C(=O)Cc1nc(CN2CCCCC2Cn2cccn2)cs1 (stereo not given)", "Trypanosoma cruzi", 1.07],
  ["CC(C)c1ncncc1C(=O)NCCN1CCCS1(=O)=O", "Trypanosoma cruzi", 7.98],
  ["COc1ccc(CN2CC[C@H]3[C@H]2CCN3C(=O)c2cnn(C)c2)cc1", "Trypanosoma cruzi", -3.23],
  ["CC(C)(C#N)C(=O)N1CCCC(c2cc(C(F)(F)F)[nH]n2)C1 (stereo not given)", "Trypanosoma cruzi", 3.44],
  ["COc1cccc(C(=O)NS(=O)(=O)c2cccc(C#N)c2)c1OC", "Trypanosoma cruzi", 1.58],
  ["Cc1cnc(CN(C)C2CCN(CC(=O)Nc3nncs3)C2)o1 (stereo not given)", "Trypanosoma cruzi", -2.74],
  ["O=C(Nc1cccnc1)[C@H]1C[C@H]2OCC[C@H]2N(C(=O)c2ccsc2)C1", "Trypanosoma cruzi", 4.58],
  ["Cn1cc(C[C@H]2[C@H](N3CCOCC3)CCN2C(=O)c2ccco2)cn1", "Trypanosoma cruzi", -7.09],
  ["CCC(=O)NC1CCN(c2cccc(CC)c2)CC1", "Trypanosoma cruzi", 1.13],
  ["Cc1nn(C)c(Cl)c1C(=O)NCC(c1ccsc1)N(C)C (stereo not given)", "Trypanosoma cruzi", 7.65],
  ["c1ccc2cc(OCCN3CCn4c(nnc4C4CC4)C3)ccc2c1", "Trypanosoma cruzi", 1.61],
  ["O=C(c1cccs1)N1C[C@H]2CC[C@@]3(N=C(c4ccccc4)NC3=O)[C@H]2C1", "Trypanosoma cruzi", -2.06],
  ["Cc1cnn(C(C)C2CC2)c1NC(=O)c1ccncc1 (stereo not given)", "Trypanosoma cruzi", -1.26],
  ["Cc1cc(C)nc(N2Cc3cnn(Cc4ccc(F)cc4)c3C2)n1", "Trypanosoma cruzi", -7.5],
  ["CC(C)C(=O)NCCCn1ncc2c(Cl)cccc21", "Trypanosoma cruzi", 5.61],
  ["CCn1cnnc1C1CCN(C(=O)C(OC)c2ccccc2)CC1 (stereo not given)", "Trypanosoma cruzi", 5.58],
  ["NC(=O)CC1CCN(C(=O)NCc2ccccc2-n2cccn2)CC1", "Trypanosoma cruzi", -0.602],
  ["O=C(NCCNc1ncccn1)C1CCN(CC(F)(F)F)CC1", "Trypanosoma cruzi", -6.51],
  ["COCc1cccc(NS(=O)(=O)c2cc(C(=O)O)cs2)c1", "Trypanosoma cruzi", 2.91],
  ["CCc1noc(C(C)N(C)CC(=O)Nc2cccc(C)n2)n1 (stereo not given)", "Trypanosoma cruzi", -0.979],
  ["Cn1ccc2ccnc(CC3CN(C(=O)C4CCC(F)(F)CC4)C3)c21", "Trypanosoma cruzi", -0.395],
  ["Cc1ccc(-c2noc(CN3CCOC(Cn4cncn4)C3)n2)cc1 (stereo not given)", "Trypanosoma cruzi", 2.14],
  ["c1ccc2c(N3CCCCC3Cn3cncn3)ncnc2c1 (stereo not given)", "Trypanosoma cruzi", -0.876],
  ["Cc1noc(C(C)C)c1C(=O)N1CCCN(Cc2cscn2)CC1", "Trypanosoma cruzi", 2.25],
  ["Cc1ccsc1CN(Cc1ccccn1)CC(C)C", "Trypanosoma cruzi", 4.76],
  ["Cc1cnc(C)c(N2CCN(Cc3ccc(-c4cc[nH]n4)o3)CC2)n1", "Trypanosoma cruzi", 5.94],
  ["CCn1ccnc1CNCC1CCCN1c1cccnn1 (stereo not given)", "Trypanosoma cruzi", 0.803],
  ["Cc1[nH]/c(=N\\C(=O)c2csc(NCC(C)C)n2)sc1C", "Trypanosoma cruzi", -3.2],
  ["CC(O)CNC(=O)NCc1ccc(N2CCNC(=O)C2)cc1 (stereo not given)", "Trypanosoma cruzi", 2.06],
  ["CCCc1nc(CN2CCCC2Cn2cncn2)cs1 (stereo not given)", "Trypanosoma cruzi", 3.87],
  ["N#Cc1ccccc1OCCN1CCn2c(nnc2C2CC2)C1", "Trypanosoma cruzi", -0.602],
  ["O=C(CN1CCNCC1)N1CC[C@@H](c2ccc3ccccc3c2)[C@H](O)C1", "Trypanosoma cruzi", 0.876],
  ["CCc1ccccc1CN1CC[C@@H](NC(=O)c2cccnc2)[C@H](O)C1", "Trypanosoma cruzi", 8.26],
  ["CCC(=O)Nc1ccc2c(c1)CN(C(=O)c1ccco1)CC2", "Trypanosoma cruzi", -1.48],
  ["Cc1ccc(C#N)cc1NC(=O)NC1CCCN(c2ncccn2)C1 (stereo not given)", "Trypanosoma cruzi", -2.98]
]}
